Test system: 817829-284-R-J1-PDC complex spheroid viability;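 also: spheroids exposed to compounds for 7 days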
Test: Anticancer human tumor 817829-284-R-J1-PDC patient-derived colon adenocarcinoma cell line growth inhibition [POLQ]
Conditions: curve of first compound; second compound 0.316 µM
pIC50: −log10 of the molar value.
measured attribute: pIC50

Problem: Provide measured pIC50 value, entry: O=c1[nH]cc(F)c(=O)[nH]1 + Cc1cccc(N(C)C(=O)C2C(O)CCN2c2nc(C)cc(C(F)(F)F)c2C#N)c1
Solution: < 5.00

Problem: Provide measured pIC50 value, entry: CCc1c2c(nc3ccc(O)cc13)-c1cc3c(c(=O)n1C2)COC(=O)[C@]3(O)CC + COC1C(OC(N)=O)C(O)C(Oc2ccc3c(O)c(NC(=O)c4ccc(O)c(CC=C(C)C)c4)c(=O)oc3c2C)OC1(C)C
Solution: > 8.50

Problem: Provide measured pIC50 value, entry: CC1COCCN1c1cc(C2(O)CC3CCC(C2)O3)c2cnn(-c3ccn[nH]3)c2n1 (stereo not given) + Nc1ccc(C#CCN(C(=O)Cc2ncc(C(F)(F)F)cc2C(F)(F)F)c2ccc(F)cc2)nn1
Solution: > 7.50

Problem: Provide measured pIC50 value, entry: C#Cc1c(F)ccc2cc(O)cc(-c3ncc4c(N5CC6CCC(C5)N6)nc(OCC56CCCN5CC(F)C6)nc4c3F)c12 (stereo not given) + Cc1cccc(N(C)C(=O)C2C(O)CCN2c2nc(C)cc(C(F)(F)F)c2C#N)c1
Solution: < 5.00

Problem: Provide measured pIC50 value, entry: COc1cccc(OCCCN)c1-c1cc(Nc2cnc(C#N)cn2)n[nH]1 + COC1C(OC(N)=O)C(O)C(Oc2ccc3c(O)c(NC(=O)c4ccc(O)c(CC=C(C)C)c4)c(=O)oc3c2C)OC1(C)C
Solution: > 8.50

Problem: Provide measured pIC50 value, entry: COc1ccc([C@@H](O)c2cc(-c3ncnc4cc(N5CCOCC5)ccc34)c(F)cc2Cl)nn1 + Cc1cccc(N(C)C(=O)C2C(O)CCN2c2nc(C)cc(C(F)(F)F)c2C#N)c1
Solution: 6.03

Problem: Provide measured pIC50 value, entry: COc1ccc([C@@H](O)c2cc(-c3ncnc4cc(N5CCOCC5)ccc34)c(F)cc2Cl)nn1 + COC1C(OC(N)=O)C(O)C(Oc2ccc3c(O)c(NC(=O)c4ccc(O)c(CC=C(C)C)c4)c(=O)oc3c2C)OC1(C)C
Solution: 6.10

Problem: Provide measured pIC50 value, entry: O=C(Nc1ccc(O)c(NS(=O)(=O)c2ccc(F)cc2)c1)c1ccc(-c2ccccc2)cc1 + COC1C(OC(N)=O)C(O)C(Oc2ccc3c(O)c(NC(=O)c4ccc(O)c(CC=C(C)C)c4)c(=O)oc3c2C)OC1(C)C
Solution: 5.24

Problem: Provide measured pIC50 value, entry: CCc1c2c(nc3ccc(O)cc13)-c1cc3c(c(=O)n1C2)COC(=O)[C@]3(O)CC + Cc1cccc(N(C)C(=O)C2C(O)CCN2c2nc(C)cc(C(F)(F)F)c2C#N)c1
Solution: > 8.50

Problem: Provide measured pIC50 value, entry: CNCc1ccc(-c2[nH]c3cc(F)cc4c3c2CCNC4=O)cc1 + Nc1ccc(C#CCN(C(=O)Cc2ncc(C(F)(F)F)cc2C(F)(F)F)c2ccc(F)cc2)nn1
Solution: < 5.00
